From: patent US20230365589A1

// reported IC50 for each item listed
- study-target: DYRK3 (Homo sapiens)
- Construct: purchased Carna Biosciences, Inc. 04-133
- Sequence (O43781 1-568 isoform O43781-2): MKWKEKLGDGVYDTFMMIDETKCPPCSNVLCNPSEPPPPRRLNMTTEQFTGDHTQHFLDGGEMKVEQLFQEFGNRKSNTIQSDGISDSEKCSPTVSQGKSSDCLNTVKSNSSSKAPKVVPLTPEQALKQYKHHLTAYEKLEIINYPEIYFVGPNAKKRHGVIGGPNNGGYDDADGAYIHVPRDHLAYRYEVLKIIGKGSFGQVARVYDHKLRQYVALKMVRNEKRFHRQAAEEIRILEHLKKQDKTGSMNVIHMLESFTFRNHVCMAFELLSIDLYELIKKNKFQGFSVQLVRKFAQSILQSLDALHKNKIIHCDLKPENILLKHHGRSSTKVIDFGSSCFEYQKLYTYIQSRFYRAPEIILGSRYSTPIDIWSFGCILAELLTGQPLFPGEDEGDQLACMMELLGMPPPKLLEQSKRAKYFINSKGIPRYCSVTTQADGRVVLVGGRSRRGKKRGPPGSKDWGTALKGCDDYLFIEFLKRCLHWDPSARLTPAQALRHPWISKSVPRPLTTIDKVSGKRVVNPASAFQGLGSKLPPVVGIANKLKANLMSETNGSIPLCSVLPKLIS
- procedure-summary: Inhibition test on activity of DYRK family, mobility shift assay (MSA): DYRK3
- Format: biochemical
- condition-info: read-out: Inhibitory activity DYRK 3

Please review the entries below; each comes with its answer.
compound	study-target	value
N#C[C@H]1C[C@@H]2[C@H](CO1)NC(=O)N2c1nc2c3c(ccc2s1)OCC3	DYRK3 (Homo sapiens)	100 to 1000 nM
C[C@@H]1[C@@H]2NC(=O)N(c3nc4c5c(ccc4s3)OCC5)[C@@H]2CCN1C	DYRK3 (Homo sapiens)	≥ 1000 nM
O=C1N[C@H]2CN(C3CC3)C[C@H]2N1c1nc2c3c(ccc2s1)OCC3	DYRK3 (Homo sapiens)	≥ 1000 nM
C[C@H]1C[C@@H]2[C@H](CN1C)NC(=O)N2c1nc2c3c(ccc2s1)OCC3	DYRK3 (Homo sapiens)	100 to 1000 nM
CC1(C)C[C@@H]2[C@H](CO1)NC(=O)N2c1nc2c3c(ccc2s1)OCC3	DYRK3 (Homo sapiens)	100 to 1000 nM

Note IC50 for the compound shown: "C[C@H]1[C@H]2[C@@H](CCN1C)NC(=O)N2c1nc2c3c(ccc2s1)OCC3"
100 to 1000 nM

Item O=C1N[C@H]2CCN(CC(F)(F)F)C[C@H]2N1c1nc2c3c(ccc2s1)OCC3 (racemic) : provide IC50
≥ 1000 nM

Hello, please tell me recorded IC50 for this one: "C[C@H]1[C@@H]2[C@H](CCN1C)NC(=O)N2c1nc2c3c(ccc2s1)OCC3"
≥ 1000 nM

---

- study-target: DYRK2 (Homo sapiens, UniProt Q92630)
- Construct: purchased Carna Biosciences, Inc. 04-132
- Sequence (Q92630 74-601 limits assumed): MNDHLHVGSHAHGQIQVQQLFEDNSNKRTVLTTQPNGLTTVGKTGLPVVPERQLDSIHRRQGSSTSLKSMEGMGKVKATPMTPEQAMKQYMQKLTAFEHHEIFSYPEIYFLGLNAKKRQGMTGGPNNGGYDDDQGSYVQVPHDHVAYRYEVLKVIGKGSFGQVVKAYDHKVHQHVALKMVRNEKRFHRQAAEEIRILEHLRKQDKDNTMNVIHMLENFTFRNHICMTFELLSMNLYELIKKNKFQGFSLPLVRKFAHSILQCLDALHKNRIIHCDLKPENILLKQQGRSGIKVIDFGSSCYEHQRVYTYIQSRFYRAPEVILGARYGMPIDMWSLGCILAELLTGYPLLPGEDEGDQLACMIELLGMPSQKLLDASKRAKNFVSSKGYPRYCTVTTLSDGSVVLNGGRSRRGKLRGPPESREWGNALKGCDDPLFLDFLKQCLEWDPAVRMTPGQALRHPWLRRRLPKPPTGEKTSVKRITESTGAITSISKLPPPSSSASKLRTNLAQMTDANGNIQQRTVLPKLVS
- procedure-summary: Inhibition test on activity of DYRK family, mobility shift assay (MSA): DYRK2
- Assay type: biochemical
- condition-info: read-out: Inhibitory activity DYRK 2
pIC50: −log10 of the molar value.
value-kind: pIC50

// worked examples, pIC50 included
molecule	value-kind	value
C[C@@H]1NC(=O)N(c2nc3c4c(ccc3s2)OCC4)[C@@H]1CN1CC(F)(F)C1	pIC50	≤ 6.00
C[C@@H]1NC(=O)N(c2nc3c4c(ccc3s2)OCC4)[C@@H]1CN1CCC(F)(F)C1	pIC50	≤ 6.00
O=C1N[C@H]2CCN(CC(F)F)C[C@H]2N1c1nc2c3c(ccc2s1)OCC3 (racemic)	pIC50	≤ 6.00
N#C[C@H]1C[C@H]2NC(=O)N(c3nc4c5c(ccc4s3)OCC5)[C@H]2CO1	pIC50	≤ 6.00
O=C1N[C@H]2CCCN(C3CC3)C[C@H]2N1c1nc2c3c(ccc2s1)OCC3 (racemic)	pIC50	6.00 to 7.00

Shifting focus to the molecule that follows.
Return reported pIC50. Input molecule: N#CCN1CCC[C@@H]2NC(=O)N(c3nc4c5c(ccc4s3)OCC5)[C@@H]2C1 (racemic)
≤ 6.00
